reportedMetric: melting point

lineNotation: O=C(Nc1ccc2[nH]nnc2c1)c1cc2cc(C(F)(F)F)ccc2n1Cc1cccc(F)c1
reported: 167 to 174 °C

Task: Give the measured melting point of O=C(Nc1ccc2c(c1)CCNO2)c1cc2ccccc2n1-c1cccc(C(F)(F)F)c1 .
Output: 90 to 92 °C

Task: Check O=C(Nc1ccc2occc2c1)c1cc2ccccc2n1-c1cccc(C(F)(F)F)c1 too.
Output: 141 to 143 °C

Task: Also, Cc1nc2cc(NC(=O)c3cc4cc(F)ccc4n3Cc3cccc(F)c3)ccc2o1 please.
Output: 188 to 189 °C

Task: Same again, this time with O=C1Cc2cc(NC(=O)c3cc4cc(C(F)(F)F)ccc4n3Cc3cccc(F)c3)ccc2N1
Output: 244 to 246 °C

Task: What would you report for O=C(Nc1ccc2ocnc2c1)c1cc2ccccc2n1-c1cccc(C(F)(F)F)c1 ?
Output: 222 to 224 °C

Task: Further, for O=C(Nc1ccc2cnccc2c1)c1cc2cc(F)ccc2n1Cc1cccc(F)c1 ?
Output: 139 to 141 °C

Task: Further, for COc1ccc2cc(C(=O)Nc3ccc4c(c3)NC(=O)CC4)n(Cc3ccc(F)cc3)c2c1 ?
Output: 255 to 256 °C

Task: Now the compound Cn1cnc2ccc(NC(=O)c3cc4cc(F)ccc4n3Cc3cccc(F)c3)cc21
Output: 215 to 216 °C

---

Where a name gives a salt, the structure may show the parent alone.
reportedMetric: melting point

Check out these entries, answers already filled in.
molecule: Cn1ncc2cc(NC(=O)c3cc4cc(F)ccc4n3Cc3cccc(F)c3)ccc21
reportedMetric: melting point
reported: 210 to 211 °C

molecule: Cc1nc2ccc(NC(=O)c3cc4cc(F)ccc4n3Cc3cccc(F)c3)cc2[nH]1 (as salt: HCl)
reportedMetric: melting point
reported: 195 to 200 °C

molecule: Cn1cnc2c(NC(=O)c3cc4cc(F)ccc4n3Cc3cccc(F)c3)cccc21
reportedMetric: melting point
reported: 195 to 197 °C

molecule: O=C(Nc1ccc2oc(-c3ccccc3)nc2c1)c1cc2cc(C(F)(F)F)ccc2n1Cc1cccc(F)c1
reportedMetric: melting point
reported: 194 to 195 °C

molecule: CS(=O)(=O)N1CCc2cc(NC(=O)c3cc4cc(F)ccc4n3Cc3cccc(F)c3)ccc21
reportedMetric: melting point
reported: 192 to 193 °C

Task: Item under review: O=C1Cc2ccc(NC(=O)c3cc4ccccc4n3-c3cccc(C(F)(F)F)c3)cc2ON1 . Reported melting point?
Output: 214 to 216 °C

Task: Can you check Cn1cnc2cc(NC(=O)c3cc4cc(F)ccc4n3Cc3cccc(F)c3)ccc21 next?
Output: 248 to 251 °C

Task: Next molecule up: O=C(Nc1ccc2ncsc2c1)c1cc2cc(F)ccc2n1Cc1cccc(F)c1
Output: 167 to 168 °C

---

Structures can show the parent of a compound that is named as a salt.
Property: melting point; scope: individual compounds

Example cases with answers are listed next.
compound: CCc1nc2cc(NC(=O)c3cc4cc(C(F)(F)F)ccc4n3Cc3cccc(F)c3)ccc2o1
reportedMetric: melting point
reported: 187 to 189 °C
//
compound: CN1CCCc2ccc(NC(=O)c3cc4cc(C(F)(F)F)ccc4n3Cc3cccc(F)c3)cc21
reportedMetric: melting point
reported: 146 to 147 °C

Task: melting point lookup needed for CN1CCCc2ccc(NC(=O)c3cc4ccccc4n3-c3cccc(C(F)(F)F)c3)cc21 , thanks.
Output: 92 to 95 °C

Task: Same for O=C(Nc1cccc2cnccc12)c1cc2cc(F)ccc2n1Cc1cccc(F)c1
Output: 206 to 207 °C

Task: Cool, now Cc1nc2cc(NC(=O)c3cc4cc(C(F)(F)F)ccc4n3Cc3cccc(F)c3)ccc2s1
Output: 191 to 192 °C

Task: # repeat for O=C(Nc1ccc2ncsc2c1)c1cc2cc(C(F)(F)F)ccc2n1Cc1cccc(F)c1
Output: 191 to 192 °C

Task: Now this one: O=C(Nc1cccc2c1NCCC2)c1cc2ccccc2n1-c1cccc(C(F)(F)F)c1
Output: 93 to 95 °C

Task: What do we get for O=C(Nc1ccc2nc[nH]c2c1)c1cc2cc(F)ccc2n1Cc1cccc(F)c1 (as salt: HCl) ?
Output: 275 to 280 °C

Task: And what about the compound O=C(Nc1ccc2ncccc2c1)c1cc2cc(F)ccc2n1Cc1cccc(F)c1 ?
Output: 208 to 210 °C
